System: HEK-293T
Assay: Multiplex assay against HEK293T
Assay type: toxicity, cell-based
Details: human, 48 h, 1 µM, compound concentration 1 uM, replicate 1
Could you please report measured Population Mitotic Cells (%) for the items listed next?
Give bare numbers, in %.

Hi there! I need Population Mitotic Cells (%) for each item below, if you can.
1. CN(C)C/C=C/C(=O)Nc1ccc(C(=O)N2CCCC(Nc3ncc(Cl)c(-c4c[nH]c5ccccc45)n3)C2)cc1 (stereo unspecified)
2. Cc1cc(-c2ccc3c(c2)CC[C@H]3N2CC3(CCN(C(=O)Cc4cn5cc(C)sc5n4)CC3)C2)ncn1 [PF-5190457]
3. COc1ccc2[nH]c(I)c(CCNC(C)=O)c2c1 [IODOMELATONIN]

32
74
73

Batch: Population Mitotic Cells (%) for all items listed.
1. CN1C[C@H](C(=O)N[C@]2(C)O[C@@]3(O)[C@@H]4CCCN4C(=O)[C@H](Cc4ccccc4)N3C2=O)C[C@@H]2c3cccc4[nH]cc(c34)C[C@H]21.CS(=O)(=O)O [DIHYDROERGOTAMINE MESYLATE]
2. O=c1nc2[nH]c3ccccc3nc-2c(=O)[nH]1 [ALLOXAZINE]
3. COc1cc(C(=O)N2CC[C@@H](O)[C@@H](N)C2)cc2nc(-c3cc4ccccc4n3CC3CC3)n(C)c12.Cl
4. O=C(O)CCC/C=C\CC1C(O)CC(O)C1/C=C/C(O)COc1cccc(Cl)c1 (stereo unspecified) [CLOPROSTENOL]
5. COc1cc(OC2CCN(C(C)=O)CC2)ccc1C(=O)N1CCC(N2C(=O)OCc3ccccc32)CC1
6. OCCCNc1cc(-c2ccnc(Nc3cccc(Cl)c3)n2)ccn1

1. 70
2. 67
3. 75
4. 79
5. 79
6. 17

Please state, for each entry, its recorded Population Mitotic Cells (%).
1. Cc1sc2c(c1C)C(c1ccc(Cl)cc1)=N[C@H](CC(=O)OC(C)(C)C)c1nnc(C)n1-2
2. N[C@](CC1c2ccccc2Oc2ccccc21)(C(=O)O)[C@H]1C[C@@H]1C(=O)O
3. Cl.Cl.OCCOCCN1CCN(C(c2ccccc2)c2ccc(Cl)cc2)CC1 (stereo unspecified) [HYDROXYZINE HYDROCHLORIDE]
4. Cc1nn(C)c2nc(NNC(=O)Nc3cc(Cl)nc(Cl)c3)cc(C(C)C)c12

81
87
76
72

----------
System: Fibroblast
Assay: Multiplex assay against human fibroblast
Assay type: toxicity, cell-based
Conditions: 24 h, 1 µM, compound concentration 1 uM, replicate 1
Non-standard residues stand in square brackets, D forms with d. Residues, ends and D or L forms follow the SMILES beside them.
Could you please report measured Population Normal (%) for the items listed next?
Give bare numbers, in %.

MOLECULE: COc1ccc2[nH]c(I)c(CCNC(C)=O)c2c1 [IODOMELATONIN]
Population Normal (%): 99

Provide reported Population Normal (%) for each item, in the same order as listed.
1. CN1CCN(c2ccc(Nc3c4ccccc4nc4ccccc34)cc2)CC1.Cl.Cl.O
2. Nc1nc(-c2ccco2)c2cnn(Cc3ccccc3F)c2n1
3. CC(C)C[C@@H]1NC(=O)[C@@H](C(C)C)NC(=O)[C@@H]2CCCN2C(=O)[C@@H](CC(=O)O)NC(=O)[C@@H](Cc2c[nH]c3ccccc23)NC1=O [BQ-123] (cyclo(L[dW][dD]P[dV]))
4. Nc1nc(CC(=O)Nc2ccc(CCNC[C@H](O)c3ccccc3)cc2)cs1 [MIRABEGRON]

[99, 100, 98, 94]

Please supply Population Normal (%) for each of the following items, keeping them in order.
1. CC(C)C[C@H](CO)Nc1nc(S[C@@H](C)c2ccccc2)nc2nc(N)sc12 [AZD-8797]
2. COc1cc(Nc2ncc3c(n2)-c2ccc(Cl)cc2C(c2c(F)cccc2OC)=NC3)ccc1C(=O)O [ALISERTIB]
3. OCCCNc1cc(-c2ccnc(Nc3cccc(Cl)c3)n2)ccn1
4. Cc1cc(-c2ccc3c(c2)CC[C@H]3N2CC3(CCN(C(=O)Cc4cn5cc(C)sc5n4)CC3)C2)ncn1 [PF-5190457]
5. CN1CCC(C(=O)c2cccc(NC(=O)c3c(F)cc(F)cc3F)n2)CC1
6. O=C(O)CCC/C=C\CC1C(O)CC(O)C1/C=C/C(O)COc1cccc(Cl)c1 (stereo unspecified) [CLOPROSTENOL]
7. CSc1nc(NC2CCCC2)c([N+](=O)[O-])c(NC2CCCC2)n1 [GS-39783]
8. CN(C)C(=O)Cn1cc(-c2ccc(-c3nnc4ccccn34)cc2)cn1

[98, 97, 97, 97, 98, 99, 97, 99]

Report Population Normal (%) for each item below.
1. CC(C)(O)C(=O)N1CCN(c2ccc(C(F)(F)F)c(C3=C(c4c[nH]c5ccccc45)C(=O)NC3=O)c2)CC1
2. CN1C[C@H](C(=O)N[C@]2(C)O[C@@]3(O)[C@@H]4CCCN4C(=O)[C@H](Cc4ccccc4)N3C2=O)C[C@@H]2c3cccc4[nH]cc(c34)C[C@H]21.CS(=O)(=O)O [DIHYDROERGOTAMINE MESYLATE]
3. O=c1ccc2ccc(OCCCCN3CCN(c4cccc5sccc45)CC3)cc2[nH]1 [BREXPIPRAZOLE]

1. 98
2. 98
3. 98

----------
Test system: U2OS
Assay: Multiplex assay against U2OS
Type: toxicity, cell-based
Settings: human, 12 h, 1 µM, compound concentration 1 uM, replicate 1
ATTRIBUTE_MEASURED: Population Healthy Nuclei (%)
Numbers only, in %.

For orientation, consider the following solved cases.
QUERY_SMILES: CN1CCN(c2ccc(Nc3c4ccccc4nc4ccccc34)cc2)CC1.Cl.Cl.O
Population Healthy Nuclei (%): 65

QUERY_SMILES: CCCCCCNC(=O)Nc1ccc(S(=O)(=O)Nc2ccc(CCNC[C@H](O)COc3ccc(O)cc3)cc2)cc1
Population Healthy Nuclei (%): 67

QUERY_SMILES: COc1cc(OC2CCN(C(C)=O)CC2)ccc1C(=O)N1CCC(N2C(=O)OCc3ccccc32)CC1
Population Healthy Nuclei (%): 67

Identify the reported Population Healthy Nuclei (%) for the following entry. CC(C)(O)C(=O)N1CCN(c2ccc(C(F)(F)F)c(C3=C(c4c[nH]c5ccccc45)C(=O)NC3=O)c2)CC1
63

----------
Tested on: Fibroblast
Assay: Multiplex assay against human fibroblast
Format: toxicity, cell-based
Details: 48 h, 1 µM, compound concentration 1 uM, replicate 2
ATTRIBUTE_MEASURED: Population Apoptotic (%)
One number for each entry, in %.

MOLECULE: COc1c(Nc2ccc(S(C)(=O)=O)nc2C)ncnc1OC1CCN(C(=O)OC(C)C)CC1 [ADP-597]
TARGET_ENTITY: Fibroblast
Population Apoptotic (%): 42

MOLECULE: CCCCCCNC(=O)Nc1ccc(S(=O)(=O)Nc2ccc(CCNC[C@H](O)COc3ccc(O)cc3)cc2)cc1 [L-755507]
TARGET_ENTITY: Fibroblast
Population Apoptotic (%): 53

Each of the following entries comes with a recorded value; kindly state Population Apoptotic (%) for each.
1. CSc1nc(NC2CCCC2)c([N+](=O)[O-])c(NC2CCCC2)n1 [GS-39783]
2. COc1ccc2[nH]c(I)c(CCNC(C)=O)c2c1 [IODOMELATONIN]
3. Cc1cc(O)c(-c2ccc([C@@H](C)CN(C)C)cc2)c2c1[nH]c(=O)c1sccc12

33
42
57

----------
System: HEK-293T
Test: Multiplex assay against HEK293T
Type: toxicity, cell-based
Conditions: human, 12 h, 10 µM, compound concentration 10 uM, replicate 1
ATTRIBUTE_MEASURED: Population Hoechst High Intensity Objects (%)
Give bare numbers, in %.

# return Population Hoechst High Intensity Objects (%) for each item in the list
1. CN(C)C/C=C/C(=O)Nc1ccc(C(=O)N2CCCC(Nc3ncc(Cl)c(-c4c[nH]c5ccccc45)n3)C2)cc1 (centres undefined)
2. O=c1nc2[nH]c3ccccc3nc-2c(=O)[nH]1
3. Cc1cc(=O)n(C)c2cc(N3C(=O)CC[C@H](NS(=O)(=O)CC(C)C)[C@H]3c3ccc(Cl)cc3)ccc12
4. COc1cc(OC2CCN(C(C)=O)CC2)ccc1C(=O)N1CCC(N2C(=O)OCc3ccccc32)CC1

35
5
11
8

----------
System: Fibroblast
Test: Multiplex assay against human fibroblast
Type: toxicity, cell-based
Details: 48 h, 1 µM, compound concentration 1 uM, replicate 2
# note: exactly 4% is not below, so it is criterion not met; use criterion met for Population Membrane Permeable-Phenotype (%) strictly under it

Consider the molecule COc1c(Nc2ccc(S(C)(=O)=O)nc2C)ncnc1OC1CCN(C(=O)OC(C)C)CC1 . Is its Population Membrane Permeable-Phenotype (%) strictly less than 4%?
criterion met

Please indicate whether the reported Population Membrane Permeable-Phenotype (%) of Cc1sc2c(c1C)C(c1ccc(Cl)cc1)=N[C@H](CC(=O)OC(C)(C)C)c1nnc(C)n1-2 is strictly below 4%.
criterion not met

Could you please tell me whether Population Membrane Permeable-Phenotype (%) recorded for O=C(NCCNCC(O)COc1ccc(O)cc1)N1CCOCC1.O=C(NCCNCC(O)COc1ccc(O)cc1)N1CCOCC1.O=C(O)/C=C/C(=O)O (stereo not drawn) [XAMOTEROL FUMARATE] is less than 4%?
criterion not met

Record CN1CCN2c3ccccc3Cc3ccccc3C2C1.Cl (stereo not drawn) [MIANSERIN HYDROCHLORIDE] : is its Population Membrane Permeable-Phenotype (%) strictly below 4%?
criterion met

Hello, I'm reviewing records and need to know if Population Membrane Permeable-Phenotype (%) of CN1CCC(C(=O)c2cccc(NC(=O)c3c(F)cc(F)cc3F)n2)CC1 is below 4%. Could you check?
criterion not met

Please state whether Population Membrane Permeable-Phenotype (%) is below 4% for C=CCN1C[C@H](C(=O)N(CCCN(C)C)C(=O)NCC)C[C@@H]2c3cccc4[nH]cc(c34)C[C@H]21
criterion not met

Identify whether the molecule CN(C)C/C=C/C(=O)Nc1ccc(C(=O)N2CCCC(Nc3ncc(Cl)c(-c4c[nH]c5ccccc45)n3)C2)cc1 (stereo not drawn) records Population Membrane Permeable-Phenotype (%) below 4%.
criterion not met
